Assignment: determine reported Average response for the given compounds.
# tested-target: Drosophila OR49b (Drosophila melanogaster)
# Construct: expressed in transfected cells
# Sequence (Q9V6H2 whole entry): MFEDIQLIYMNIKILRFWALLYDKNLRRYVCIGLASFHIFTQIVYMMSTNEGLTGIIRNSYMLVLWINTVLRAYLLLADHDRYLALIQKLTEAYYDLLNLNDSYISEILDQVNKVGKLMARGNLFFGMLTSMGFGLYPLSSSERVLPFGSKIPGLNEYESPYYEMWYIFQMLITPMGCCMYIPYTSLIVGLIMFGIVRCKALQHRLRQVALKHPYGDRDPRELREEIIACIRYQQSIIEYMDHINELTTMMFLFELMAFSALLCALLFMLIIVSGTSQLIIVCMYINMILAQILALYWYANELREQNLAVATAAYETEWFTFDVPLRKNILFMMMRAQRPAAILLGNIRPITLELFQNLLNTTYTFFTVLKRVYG
# Sequence (Q9VNB5 whole entry partner): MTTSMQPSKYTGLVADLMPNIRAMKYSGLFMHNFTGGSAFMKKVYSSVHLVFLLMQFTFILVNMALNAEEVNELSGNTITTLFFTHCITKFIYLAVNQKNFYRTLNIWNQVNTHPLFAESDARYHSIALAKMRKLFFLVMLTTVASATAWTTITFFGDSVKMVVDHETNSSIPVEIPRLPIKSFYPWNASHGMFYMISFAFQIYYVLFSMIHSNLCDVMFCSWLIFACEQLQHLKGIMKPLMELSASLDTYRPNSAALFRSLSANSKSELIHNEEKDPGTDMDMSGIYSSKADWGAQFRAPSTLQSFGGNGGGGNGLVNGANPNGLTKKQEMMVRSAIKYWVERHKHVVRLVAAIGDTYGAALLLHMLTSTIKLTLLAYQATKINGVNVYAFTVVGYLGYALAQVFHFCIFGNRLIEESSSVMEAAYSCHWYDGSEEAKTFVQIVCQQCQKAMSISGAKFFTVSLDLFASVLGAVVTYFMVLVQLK
# test-summary: cell-based
# experimental-parameters: OR49b cell line; odorant cc. 10 µM; mean of biological replicates

Documented Average response of C=C(C)C1CCC2(C)OC2C1 (single isomer, unassigned; (+)) [(+)-limonene oxide] : 0.00

Documented Average response of CCOC(=O)CC [ethyl propionate] : 0.00

Documented Average response of `CCCCCCCCC=O` : 0.00

Documented Average response of `Cc1cccc(C)c1` : 0.0251

Documented Average response of `CC(C)=CCC/C(C)=C/CC/C(C)=C/CO` : 0.06

Documented Average response of C=C1CC[C@H]2O[C@]2(C)CC[C@@H]2[C@@H]1CC2(C)C [(-)-caryophyllene oxide] : 0.00
